experiment: viability loss of HPDE-C7K cells – cell-based, fluorescence, HTS, primary screen (AID 431); settings: HPDE-C7K KRASV12 cells, Alamar Blue viability, 48 h; at 10 µM; hits give high values;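 note: 0% = DMSO solvent wells and 100% = doxorubicin-treated wells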
In all, about 63,000 compounds went through this assay and about 1,100 (1.7%) were called active. This excerpt belongs to a sample that is enriched for actives. Potency and affinity values are given separately.
Parameter Measured: cytotoxicity (%)
Report only the number, with the unit % understood.

- COc1ccc(CC(=O)Nc2c3c(nn2-c2cccc(C)c2C)CS(=O)C3)cc1OC (stereo not drawn): 0.8
- O=C1N(CN2CCN(c3cccc(Cl)c3)CC2)c2ccccc2C12OCCCO2: 0
- CC1CCc2nn(CC(=O)N3CCCCCC3)cc2C1 (stereo not drawn): 2.2
- O=C(Nc1ncc(Cc2ccccc2)s1)c1cccs1: 4.6
- O=C(NC1CCCCC1)N1CCCCCCC1: -4.9
- c1ccc2nc3c(nc2c1)sc1nc2ccccc2n13: -4
- CN(C)c1ccc(C(=O)c2ccc(N(C)C)c(N)c2)cc1N: 46

Would you kindly share the measured cytotoxicity for O=C(COc1ccccc1)N(Cc1ccco1)c1ccc(O)cc1 ?
-5.3
